Test: Toxicity studies, MTD determination
Conditions: in vivo, ip, DMSO/PBS formulation, IP, single dose; read-out: MTD single dose IP
Where a name gives a salt, the structure may show the parent alone.
measured-attribute: MTD

Cc1cc(/C=C/c2ccc3cc(N(C)C)ccc3[n+]2C)c(C)[nH]1.Cc1ccc(S(=O)(=O)[O-])cc1
~5 mg/kg

Give me measured MTD, please, for this compound: Cc1cccnc1-n1c(C)cc(/C=C/c2ccc3cc(N(C)C)ccc3[n+]2C)c1C [P24, tosylate] ~5 mg/kg

* * *

Experiment: Toxicity studies, MTD determination
Settings: in vivo, po, Beta cyclodextrin formulation, PO, single dose; read-out: MTD single dose PO (oral)
Where a name gives a salt, the structure may show the parent alone.
measured-attribute: MTD

Cc1cc(/C=C/c2ccc3cc(N(C)C)ccc3[n+]2C)c(C)[nH]1.Cc1ccc(S(=O)(=O)[O-])cc1
~200 mg/kg

Then there is this molecule:
Give me measured MTD, please, for this molecule: Cc1cccnc1-n1c(C)cc(/C=C/c2ccc3cc(N(C)C)ccc3[n+]2C)c1C [P24, tosylate] ~200 mg/kg

* * *

Assay: Solubility in solvents and formulations
Details: gamma cyclodextrin, aqueous with cosolvent or surfactant or cyclodextrin
measured-attribute: solubility

Give me measured solubility, please, for this molecule: `Cc1cc(/C=C/c2ccc3cc(N(C)C)ccc3[n+]2C)c(C)[nH]1.Cc1ccc(S(=O)(=O)[O-])cc1` ~5000 µg/mL

* * *

Experiment: Toxicity studies, MTD determination
Details: in vivo, po, Beta cyclodextrin formulation, PO, daily dosing; read-out: MTD daily dosing PO
Counter-ions that a name gives are not always drawn.
Provide the recorded MTD for the entries that follow.

Cc1cc(/C=C/c2ccc3cc(N(C)C)ccc3[n+]2C)c(C)[nH]1.Cc1ccc(S(=O)(=O)[O-])cc1
≥ 100 mg/kg

Then there is this molecule:
Give me measured MTD, please, for this molecule: Cc1cccnc1-n1c(C)cc(/C=C/c2ccc3cc(N(C)C)ccc3[n+]2C)c1C [P24, tosylate] ≥ 100 mg/kg

* * *

Assay: Solubility in solvents and formulations
Conditions: DMSO, organic solvent or mixture
measured-attribute: solubility

Give me measured solubility, please, for this molecule: Cc1cc(/C=C/c2ccc3cc(N(C)C)ccc3[n+]2C)c(C)[nH]1.Cc1ccc(S(=O)(=O)[O-])cc1 [P7] ~10000 µg/mL

* * *

Test: Toxicity studies, MTD determination
Details: in vivo, ip, DMSO/PBS formulation, IP, daily dosing; read-out: MTD daily dosing IP
Description: In DMSO/PBS formulation, with MTD single dose: IV: ˜1 mg/kg; PO (oral): not determined due to poor absorption; and IP: ˜5 mg/kg. With MTD daily dosing: IP: ˜1 mg/kg. In Beta cyclodextrin formulation: MTD single dose: IV: not determined; PO (oral); ˜200 mg/kg; IP: >10 mg/kg. In MTD daily dosing: IP: at least 5 mg/kg; PO: at least 100 mg/kg.
Structures can show the parent of a compound that is named as a salt.
measured-attribute: MTD

Cc1cc(/C=C/c2ccc3cc(N(C)C)ccc3[n+]2C)c(C)[nH]1.Cc1ccc(S(=O)(=O)[O-])cc1 [P7]
~1 mg/kg

Give me measured MTD, please, for this molecule: Cc1cccnc1-n1c(C)cc(/C=C/c2ccc3cc(N(C)C)ccc3[n+]2C)c1C [P24, tosylate] ~1 mg/kg

The measured values listed here are drawn from patent US10428048B2.
